- Test system: Candida utilis ATCC 9950
- Assay type: cell-based
- Text: According to the Standards of Clinical and Laboratory Standards Institute (CLSI) of the USA for antimicrobial drug susceptibility test operation standards, the micronutrient serial twofold dilution method was used further determine MICs of 30 AMPs (S/N: LV-1 to LV-30) 10 clinically common sensitive strains and 6 fungi in clinical practice. The experiment was repeated 5 times in parallel.
Non-standard residues stand in square brackets, D forms with d. Residues, ends and D or L forms follow the SMILES beside them. d2Nal = N[C@H](Cc1ccc2ccccc2c1)C(=O)O; d(hLeu) = CC(C)CC[C@@H](N)C(=O)O

[
  {
    "compound": "CC(=O)N[C@H](CCCNC(=N)N)C(=O)N[C@H](CCCCN)C(=O)N[C@H](CCC(C)C)C(=O)N[C@H](CCC(C)C)C(=O)N[C@H](Cc1ccc2ccccc2c1)C(=O)N[C@H](CCCNC(=N)N)C(=O)N[C@H](CCC(C)C)C(=O)N[C@H](CCCCN)C(=O)N[C@H](Cc1ccc2ccccc2c1)C(=O)N[C@H](CCCNC(=N)N)C(=O)N[C@H](CCCCN)C(N)=O [LV-14] (Ac-[dR][dK][d(hLeu)][d(hLeu)][d2Nal][dR][d(hLeu)][dK][d2Nal][dR][dK]-NH2)",
    "MIC Candida utilis ATCC 9950 [µg/mL]": 4
  }
]

###

- System: rabbit red blood cells
- Assay type: cell-based
- assay setup: red cells of rabbit, 1 h
Non-standard residues stand in square brackets, D forms with d. Residues, ends and D or L forms follow the SMILES beside them. d2Nal = N[C@H](Cc1ccc2ccccc2c1)C(=O)O
property name: MHC (minimum hemolytic concentration, lowest concentration causing 10% hemolysis)

[
  {
    "compound": "CC(=O)N[C@H](CCCNC(=N)N)C(=O)N[C@H](CCCNC(=N)N)C(=O)N[C@H](CC(C)C)C(=O)N[C@H](CC(C)C)C(=O)N[C@H](Cc1ccc2ccccc2c1)C(=O)N[C@H](CCCNC(=N)N)C(=O)N[C@H](CC(C)C)C(=O)N[C@H](CCCNC(=N)N)C(=O)N[C@H](Cc1ccc2ccccc2c1)C(=O)N[C@H](CCCNC(=N)N)C(=O)N[C@H](CCCNC(=N)N)C(N)=O [LV-1] (Ac-[dR][dR][dL][dL][d2Nal][dR][dL][dR][d2Nal][dR][dR]-NH2)",
    "measured value": ">1000 µg/mL"
  },
  {
    "compound": "CC(=O)N[C@H](CCCNC(=N)N)C(=O)N[C@H](CCCCN)C(=O)N[C@H](CC(C)C)C(=O)N[C@H](CC(C)C)C(=O)N[C@H](Cc1ccc2ccccc2c1)C(=O)N[C@H](CCCCN)C(=O)N[C@H](CC(C)C)C(=O)N[C@H](CCCCN)C(=O)N[C@H](Cc1ccc2ccccc2c1)C(=O)N[C@H](CCCCN)C(=O)N[C@H](CCCNC(=N)N)C(N)=O [LV-18] (Ac-[dR][dK][dL][dL][d2Nal][dK][dL][dK][d2Nal][dK][dR]-NH2)",
    "measured value": ">1000 µg/mL"
  },
  {
    "compound": "CC(=O)N[C@H](CCCNC(=N)N)C(=O)N[C@H](CCCCN)C(=O)N[C@H](CC(C)C)C(=O)N[C@H](CC(C)C)C(=O)N[C@H](Cc1ccc2ccccc2c1)C(=O)N[C@H](CCCNC(=N)N)C(=O)N[C@H](CC(C)C)C(=O)N[C@H](CCCCN)C(=O)N[C@H](Cc1ccc2ccccc2c1)C(=O)N[C@H](CCCNC(=N)N)C(=O)N[C@H](CCCNC(=N)N)C(N)=O [LV-22] (Ac-[dR][dK][dL][dL][d2Nal][dR][dL][dK][d2Nal][dR][dR]-NH2)",
    "measured value": ">1000 µg/mL"
  }
]
